- Method Notes: Thermodynamic solubility of voruciclib HCl by the shake-flask method (HPLC)
- Assay type: physicochemical
- Protocol Conditions: 2-propanol, organic solvent or mixture, thermodynamic from solid, 2-Propanol; RT, 24 h, amorphous API, HPLC; read-out: Solubility
Structures can show the parent of a compound that is named as a salt.
Reported Endpoint: solubility at 24 h (mg/mL)
# number only, unit mg/mL dropped from output

Query: solubility at 24 h; subject: CN1CC[C@@H](c2c(O)cc(O)c3c(=O)cc(-c4ccc(C(F)(F)F)cc4Cl)oc23)[C@@H]1CO [voruciclib HCl] 19

====

- Method Notes: Quantitative solubility determination of voruciclib malonate after the thermocycling experiments (UPLC)
- Format: physicochemical
- Protocol Conditions: 1,4-dioxane, organic solvent or mixture, thermodynamic from solid, 1,4-Dioxane, read-out: Solubility
Reported Endpoint: solubility (mg/mL)
# number only, unit mg/mL dropped from output

Query: solubility; subject: CN1CC[C@H](c2c(O)cc(O)c3c(=O)cc(-c4ccc(C(F)(F)F)cc4Cl)oc23)[C@H]1CO (stereo in doubt) [voruciclib malonate] 0.9
